- target entity: T1, Duffy Antigen Receptor for Chemokines (DARC) on human Duffy positive erythrocytes (human, UniProt Q16570 1-336)
- T1 construct: whole, on cells; also called DARC positive erythrocytes
- T1 sequence: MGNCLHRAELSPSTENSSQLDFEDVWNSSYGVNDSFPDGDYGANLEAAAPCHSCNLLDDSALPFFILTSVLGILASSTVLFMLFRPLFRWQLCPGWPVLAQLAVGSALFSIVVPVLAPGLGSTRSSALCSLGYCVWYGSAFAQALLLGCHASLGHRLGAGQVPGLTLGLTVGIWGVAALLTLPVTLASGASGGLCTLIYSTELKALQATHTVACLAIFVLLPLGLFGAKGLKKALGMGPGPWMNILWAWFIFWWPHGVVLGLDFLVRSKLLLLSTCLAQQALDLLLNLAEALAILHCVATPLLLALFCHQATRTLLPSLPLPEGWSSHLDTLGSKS
- assay notes: COS7 cell binding assay (rosettes)
assay metric: binding result

{"binder": "DEKnull-3 expressed on the surface of COS7 cells (designed binder, also called COS7 cell surface-expressed DEKnull-3) TISSAIINHAFLQNTVMKNCNYKRKRRERDWDCNTKKDVCIPDRRYQLCMKELTNLTATATSAAHRDITFRKLYAARTSAYDAAVEGDLLLKLTNYRASTDACKAATWSLGDFGDIIMGTDMEGIGYSKVVATNLRSIFGTDEKAQQRRKQWTATSKAQIWTAMMAASTAASKGNAIWSCKLNVAVNIEPTIAAWIATSARATSSELPTEVQKLKEKCDGKINYTDKKVCKVPPCQNACKSYDQWITRKKNQWDVLSNKFISVKNAEKVQTAGIVTPYDILKQELDEFNEVAFENEINKRDGAYIELCVCSVEEAKKNTQEVVTNVDN", "result": "no binding"}
{"binder": "DBPII Sal1 expressed on the surface of COS7 cells (ligand, also called COS7 cell surface-expressed Sal1; wild type DBPII Sal1) TISSAIINHAFLQNTVMKNCNYKRKRRERDWDCNTKKDVCIPDRRYQLCMKELTNLVNNTDTNFHRDITFRKLYLKRKLIYDAAVEGDLLLKLNNYRYNKDFCKDIRWSLGDFGDIIMGTDMEGIGYSKVVENNLRSIFGTDEKAQQRRKQWWNESKAQIWTAMMYSVKKRLKGNFIWICKLNVAVNIEPQIYRWIREWGRDYVSELPTEVQKLKEKCDGKINYTDKKVCKVPPCQNACKSYDQWITRKKNQWDVLSNKFISVKNAEKVQTAGIVTPYDILKQELDEFNEVAFENEINKRDGAYIELCVCSVEEAKKNTQEVVTNVDN", "result": "binds"}
{"binder": "DEKnull-4 expressed on the surface of COS7 cells (designed binder, also called COS7 cell surface-expressed DEKnull-4) TISSAIINHAFLQNTVMKNCNYKRKRRERDWDCNTKKDVCIPDRRYQLCMKALTNLVNNTDTNFHRDITARKAYLAAKLTADAASEGDLLLKLAATATSAATCKDIRWSLGDFGDIIMGTDMEGIGYSKVVENNLRSIFGTDEKAQQRRKQWWNESKATIWTAMMASATASAATSAATAAKLNVAVNIEPQIYRWIREWGRDYVSELPTEVQKLKEKCDGKINYTDKKVCKVPPCQNACKSYDQWITRKKNQWDVLSNKFISVKNAEKVQTAGIVTPYDILKQELDEFNEVAFENEINKRDGAYIELCVCSVEEAKKNTQEVVTNVDN", "result": "no binding"}
{"binder": "DEKnull-2 expressed on the surface of COS7 cells (designed binder, also called COS7 cell surface-expressed rDEKnull-2) TISSAIINHAFLQNTVMKNCNYKRKRRERDWDCNTKKDVCIPDRRYQLCMKELTNLVNNTDTNFHADITFRKLYLKAKLIYDAAVEGDLLTKLNNYRYNKDFCKDIRWSLGDFGDIIMGTDMEGIGTSAVVENNLRSIFGTAATAQARRSQWTSESKAQIWTAMMYSVKKRLKGTFIWICKANVAVNIEPQIYRSIREWGRDYVAELPTEVTKLKEKCDGKINYADKKVCKVPPCQNACKSYDQWITRKANQWDVLSNKFTSAKNAEKAQTASIVTPYDILKQELDEFNEVAFENEINKRDGAYIELCVCSVEEAKKNTQEVVTNVDN", "result": "binds"}
